So I've got a bunch of compounds here, and I need their IC50 values.
# assay system: Polymerase acidic protein (Influenza A virus (strain A/X-31 H3N2), UniProt Q9IQ47)
# assay name: Inhibition of recombinant Influenza A virus (A/X-31(H3N2)) N-terminal 6xHis-tagged PA-Nter (1 to 217 residues) expressed in Escherichia coli BL21-CodonPlus cells using M13mp18 as substrate after 1 hr by ethidium bromide staining-based agarose gel electrophoresis
Just the number plus its unit, please.

Using known records, supply IC50 for O=C(CCN1CCC(Cc2ccc(F)cc2)CC1)c1c[nH]c2cc(O)c(O)cc12 243 µM

Using known records, supply IC50 for NS(=O)(=O)c1ccc(C(=O)NCCc2ccc(O)c(O)c2)cc1 12 µM

Using known records, supply IC50 for O=C(O)C(=O)CC(=O)c1ccccc1 3.2 µM

Using known records, supply IC50 for O=C(C(=O)N1CCC(Cc2ccccc2)CC1)c1c[nH]c2cc(O)c(O)cc12 266 µM
